# measured target: D(2) dopamine receptor (Rattus norvegicus, UniProt P61169)
# Sequence (P61169 whole entry): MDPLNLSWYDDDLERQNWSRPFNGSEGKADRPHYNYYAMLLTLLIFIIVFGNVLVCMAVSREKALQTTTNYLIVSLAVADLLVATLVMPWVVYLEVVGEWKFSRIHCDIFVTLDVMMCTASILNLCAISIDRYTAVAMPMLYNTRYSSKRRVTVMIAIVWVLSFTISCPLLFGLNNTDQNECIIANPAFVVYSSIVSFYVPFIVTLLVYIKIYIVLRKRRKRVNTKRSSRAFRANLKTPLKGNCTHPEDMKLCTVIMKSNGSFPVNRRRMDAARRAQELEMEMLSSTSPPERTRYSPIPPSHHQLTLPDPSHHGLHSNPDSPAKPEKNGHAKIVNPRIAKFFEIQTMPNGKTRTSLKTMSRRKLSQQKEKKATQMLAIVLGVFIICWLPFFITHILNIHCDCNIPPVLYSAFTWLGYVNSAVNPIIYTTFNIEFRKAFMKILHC
# experiment notes: Tested for Competitive binding inhibition of [3H]spiperone to Dopamine receptor D2 in rat striatal membrane.
metric name: Ki (µM)

compound	measured target	Ki, µM
C[N+](C)(N)CCCN1c2ccccc2Sc2ccc(Cl)cc21	D(2) dopamine receptor (Rattus norvegicus, UniProt P61169)	0.82

1. C[N+](C)(C)NCCN1c2ccccc2Sc2ccc(Cl)cc21
2. C[N+](C)(C)CCCN1c2ccccc2Sc2ccc(Cl)cc21
## Task Please choose the item with the lower Ki value from this pair: 1 and 2 Lab log: write the label of the selected item as the result.
## Result 1
